Measured pIC50 (influenza neuraminidase (N2) (Influenza A virus, UniProt P06820))
pIC50: −log10 of the molar value.

Compound	Tested System	pIC50
CCC(CC)Nc1cc(C(=O)O)ccc1N1C(=O)CCC1(CO)CCO (stereo not shown) [Example 18]	influenza neuraminidase (N2) (Influenza A virus, UniProt P06820)	3.74
CCCC(CCC)Nc1cc(C(=O)O)ccc1N1C(=O)CCC1(CO)CO [Example 10]	influenza neuraminidase (N2) (Influenza A virus, UniProt P06820)	5.09
CCC(=O)Nc1cc(C(=O)O)ccc1N1C(=O)CCC1(CO)CO [Example 14]	influenza neuraminidase (N2) (Influenza A virus, UniProt P06820)	5.82
CCC(CC)CNc1cc(C(=O)O)ccc1N1C(=O)CCC1(CO)CO [Example 11]	influenza neuraminidase (N2) (Influenza A virus, UniProt P06820)	5.46
CCC(CC)C(=O)Nc1cc(C(=O)O)ccc1N1C(=O)CCC1(CO)CO [Example 16]	influenza neuraminidase (N2) (Influenza A virus, UniProt P06820)	6.09
CCC(CC)Nc1cc(C(=O)O)ccc1N1C(=O)CCC1(CN)CO (stereo not shown) [Compound B]	influenza neuraminidase (N2) (Influenza A virus, UniProt P06820)	7.40
CCC(CC)Nc1cc(C(=O)O)ccc1N1C(=O)CCC1(CO)CO [Example 8]	influenza neuraminidase (N2) (Influenza A virus, UniProt P06820)	7.15
CCCNc1cc(C(=O)O)ccc1N1C(=O)CCC1(CO)CO [Example 12]	influenza neuraminidase (N2) (Influenza A virus, UniProt P06820)	4.81
CCC(C)C(=O)Nc1cc(C(=O)O)ccc1N1C(=O)CCC1(CO)CO (stereo not shown) [Example 15]	influenza neuraminidase (N2) (Influenza A virus, UniProt P06820)	6.74
CCC(C)C(=O)Nc1cc(C(=O)O)ccc1N1C(=O)CCC1(CN)CO (stereo not shown) [Example 17]	influenza neuraminidase (N2) (Influenza A virus, UniProt P06820)	5.22
